Taken from patent US20210238260.

Some proteins, each annotated with its measured K0.5-mut/K0.5-wt.
- target_entity: plasma purified human AT-III (antithrombin III)
- test_protocol: AT-III/UFH inhibition K0.5, ratio to Catalyst Biosciences WT FIXa

FIXa-D104N/K106S/I251S/R318Y/R338E/R403E/E410N (protein) chain 1: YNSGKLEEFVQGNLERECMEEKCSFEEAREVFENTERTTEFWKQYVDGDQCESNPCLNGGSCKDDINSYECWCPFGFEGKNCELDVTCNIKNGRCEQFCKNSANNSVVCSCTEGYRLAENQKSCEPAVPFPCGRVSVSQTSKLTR chain 2: VVGGEDAKPGQFPWQVVLNGKVDAFCGGSIVNEKWIVTAAHCVETGVKITVVAGEHNIEETEHTEQKRNVSRIIPHHNYNAAINKYNHDIALLELDEPLVLNSYVTPICIADKEYTNIFLKFGSGYVSGWGRVFHKGYSALVLQYLRVPLVDRATCLESTKFTIYNNMFCAGFHEGGRDSCQGDSGGPHVTEVEGTSFLTGIISWGEECAMKGKYGIYTKVSEYVNWIKNKTKLT : > 517

Exercise: Write down K0.5-mut/K0.5-wt measured for item FIXa-I251S/R318Y/R338E/R403E/E410N (protein) chain 1: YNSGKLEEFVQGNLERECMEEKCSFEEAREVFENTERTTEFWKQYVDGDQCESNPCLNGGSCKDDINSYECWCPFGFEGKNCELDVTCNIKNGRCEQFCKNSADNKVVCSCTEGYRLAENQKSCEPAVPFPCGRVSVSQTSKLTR chain 2: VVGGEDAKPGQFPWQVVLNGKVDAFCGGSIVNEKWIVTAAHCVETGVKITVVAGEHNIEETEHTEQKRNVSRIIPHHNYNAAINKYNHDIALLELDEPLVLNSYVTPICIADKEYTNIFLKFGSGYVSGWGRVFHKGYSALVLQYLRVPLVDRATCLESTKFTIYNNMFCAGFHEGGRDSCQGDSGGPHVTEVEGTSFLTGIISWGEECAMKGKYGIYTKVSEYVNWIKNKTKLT
Solution: > 517

Exercise: Write down K0.5-mut/K0.5-wt measured for item FIXa-R318Y/R338E/T412A (protein) chain 1: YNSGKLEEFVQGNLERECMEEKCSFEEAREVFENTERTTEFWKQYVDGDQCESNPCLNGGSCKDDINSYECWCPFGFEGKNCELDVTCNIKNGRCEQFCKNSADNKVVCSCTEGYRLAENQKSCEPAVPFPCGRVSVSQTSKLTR chain 2: VVGGEDAKPGQFPWQVVLNGKVDAFCGGSIVNEKWIVTAAHCVETGVKITVVAGEHNIEETEHTEQKRNVIRIIPHHNYNAAINKYNHDIALLELDEPLVLNSYVTPICIADKEYTNIFLKFGSGYVSGWGRVFHKGYSALVLQYLRVPLVDRATCLESTKFTIYNNMFCAGFHEGGRDSCQGDSGGPHVTEVEGTSFLTGIISWGEECAMKGKYGIYTKVSRYVNWIKEKAKLT
Solution: 396

Exercise: Write down K0.5-mut/K0.5-wt measured for item FIXa-Y155F/R318Y/R338E/N346D/R403E/E410N (protein) chain 1: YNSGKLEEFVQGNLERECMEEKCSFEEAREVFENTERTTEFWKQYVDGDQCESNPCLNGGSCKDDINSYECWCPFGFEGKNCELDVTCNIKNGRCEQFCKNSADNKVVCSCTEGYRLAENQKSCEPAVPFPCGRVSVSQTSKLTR chain 2: VVGGEDAKPGQFPWQVVLNGKVDAFCGGSIVNEKWIVTAAHCVETGVKITVVAGEHNIEETEHTEQKRNVIRIIPHHNYNAAINKYNHDIALLELDEPLVLNSYVTPICIADKEYTNIFLKFGSGYVSGWGRVFHKGYSALVLQYLRVPLVDRATCLESTKFTIYDNMFCAGFHEGGRDSCQGDSGGPHVTEVEGTSFLTGIISWGEECAMKGKYGIYTKVSEYVNWIKNKTKLT
Solution: > 517
